Target: Voltage-gated L-type calcium channel (Rattus norvegicus, UniProt P22002+Q02485+P27732)
Test: Inhibition of voltage-dependent L-type calcium channel in Wistar rat 3rd-order mesenteric artery assessed as reduction in norepinephrine-induced vessel contraction by myographic method
measured endpoint: EC50 (µM)

compound | measurement units | val
CCOC1C=C(CC[C@]2(C)[C@@H](C)CC[C@@]3(C)C(C(=O)O)=CC=C[C@@H]23)C(=O)O1 (stereo partly specified) | µM | 14
C=C1CC[C@H](C)[C@@](C)(CCC2=CCOC2=O)C/C=C\C=C/1C(=O)O | µM | 14
C=C1CC[C@H](C)[C@@](C)(CCC2=CC(OC)OC2=O)C/C=C\C=C/1C(=O)O (stereo partly specified) | µM | 22

[A] C[C@H]1CC[C@@]2(C)C(C(=O)O)=CCC[C@H]2[C@]1(C)CCC1=CCOC1=O
[B] C=C1CC[C@H](C)[C@@](C)(CCC2=CC(OCC)OC2=O)C/C=C\C=C/1C(=O)O (stereo partly specified)
[C] C=C1CC[C@H](C)[C@@](C)(CCC2=CC(O)OC2=O)C/C=C\C=C/1C(=O)O (stereo partly specified)
*Q* Please give the order of these compounds when sorted by EC50, largest value leading. A complete answer lists every label in the requested sequence.
*A* B, A, C
(B: 12 µM, A: 7.3 µM, C: 4.1 µM)
